assayOverview: Selectivity ratio of IC50 for cytotoxicity against human L02 cells to IC50 for antiproliferative activity against human HepG2 cells
Assay type: toxicity, cell-based
conditionParameters: read-out: Ratio IC50
reportedEndpoint: selectivity ratio
Numbers only.

## Task Quickly give me recorded selectivity ratio for `C=C1C(=O)[C@]23[C@H](OC(=O)CCC(=O)OCCCCCCOc4ccc(-c5cc(=S)ss5)cc4)[C@H]1CC[C@H]2[C@@]12CO[C@@]3(O)[C@@H](O)[C@@H]1C(C)(C)CC[C@@H]2OC(C)=O`
## Result 20

----------
Test system: MCF7
assayOverview: Antiproliferative activity against human MCF7 cells assessed as reduction in cell viability after 72 hrs by MTT assay
conditionParameters: MCF7, 72 h
Provide the reported IC50 of each item.
Give bare numbers, in µM.

Examples with answers:
1) C=C1C(=O)[C@]23[C@H](O)[C@H]1CC[C@H]2[C@@]12CO[C@]3(O)[C@@H](O)[C@@H]1C(C)(C)CC[C@@H]2O [ORIDONIN] : 13.8
2) C=C1C(=O)[C@]23[C@H](OC(=O)CCCC(=O)OCCCOc4ccc(-c5cc(=S)ss5)cc4)[C@H]1CC[C@H]2[C@@]12CO[C@@]3(O)[C@@H](O)[C@@H]1C(C)(C)CC[C@@H]2O : 16.6

Look at each molecule and report its IC50.
1. C=C1C(=O)[C@]23[C@H](OC(=O)CCC(=O)OCCCOc4ccc(-c5cc(=S)ss5)cc4)[C@H]1CC[C@H]2[C@@]12CO[C@@]3(O)[C@@H](O)[C@@H]1C(C)(C)CC[C@@H]2O
2. C=C1C(=O)[C@]23[C@H](OC(=O)CCCC(=O)OCCOc4ccc(-c5cc(=S)ss5)cc4)[C@H]1CC[C@H]2[C@@]12CO[C@@]3(O)[C@@H](O)[C@@H]1C(C)(C)CCC2=O

## Result
1. 14.7
2. 27.5

## Task Tell me measured IC50 for `C=C1C(=O)[C@]23[C@H](OC(=O)CCC(=O)OCCOc4ccc(-c5cc(=S)ss5)cc4)[C@H]1CC[C@H]2[C@@]12CO[C@@]3(O)[C@@H](O)[C@@H]1C(C)(C)CC[C@@H]2O` please.
## Result 17.9
